Data credit: paper PMC7376644

# measurement-notes: PZQ-ketoconazole DDI pharmacokinetic study in healthy volunteers
# Type: in vivo, human
# test-parameters: male, human, plasma, oral, 20 mg/kg, 20 mg/kg PZQ plus 200 mg ketoconazole, n = 9; read-out: V d/F, treatment geo mean
Measured Vd/F of individual entries
Answer with the figure and its unit, nothing else.

O=C(C1CCCCC1)N1CC(=O)N2CCc3ccccc3[C@H]2C1    915 L

// next item, Vd/F requested
Query: Value lookup for Vd/F; key = `O=C(C1CCCCC1)N1CC(=O)N2CCc3ccccc3[C@@H]2C1`
Result: 5480 L

* * *

# measurement-notes: PZQ-ketoconazole DDI pharmacokinetic study in healthy volunteers
# Format: in vivo, human
# test-parameters: male, human, plasma, po, 20 mg/kg, single oral 20 mg/kg PZQ alone, n = 9; read-out: T max, reference mean (SD)
assay-endpoint: Tmax (h)
Quick reminder: number only, in h, skip the unit.

O=C(C1CCCCC1)N1CC(=O)N2CCc3ccccc3[C@H]2C1    3

Query: Value lookup for Tmax; key = `O=C(C1CCCCC1)N1CC(=O)N2CCc3ccccc3[C@@H]2C1`
Result: 3
